protocol notes: Mouse model of LPS-induced acute lung injury (ALI), subcutaneous injection
stated conditions: in vivo, sc, 25 mg/kg
Where a SMILES comes first, the peptide text is derived from it. Bridges are numbered along the chain shown (N, C = ends).
metric: AUC(0-inf)

# molecule, value
rows = [
    ("CC[C@H](C)[C@@H]1NC(=O)[C@@H]2CSSC[C@H](NC(=O)[C@H](CCCNC(=N)N)NC(=O)[C@@H]3CSSC[C@H](NC1=O)C(=O)N[C@@H]([C@@H](C)O)C(=O)N[C@@H](CCCNC(=N)N)C(=O)NCC(=O)N[C@@H](Cc1ccccc1)C(=O)N3)C(=O)N[C@@H](CC(C)C)C(=O)N[C@H]1CSSC[C@H](NC(=O)[C@H](C(C)C)NC(=O)CNC(=O)[C@H](CCCNC(=N)N)NC(=O)[C@H](CCCNC(=N)N)NC1=O)C(=O)N[C@@H](CCCNC(=N)N)C(=O)N2 [Peptide 1] (cyclo(GFCRCLCRRGVCRCICTR); disulfide 3-16, 5-14, 7-12)", "9000 ng·h/mL"),
]
